Tested on: Meloidogyne incognita
Assay: Nematicidal activity against second-stage juvenile Meloidogyne incognita (root-knot nematode) assessed as paralysis measured after 1 hr
Type: functional, organism-based
Kindly supply the reported EC50 values for the records listed here.

Give EC50 for this entry on Meloidogyne incognita: CCCCCCCCCC(C)=O [METHYL NONYL KETONE]
> 500 µg/mL

Output reported EC50 of the molecule CCCCCCCCCCC(C)=O [2-DODECANONE] on Meloidogyne incognita.
> 500 µg/mL

State, for Meloidogyne incognita, measured EC50 of the molecule listed here: CCCCCCCCCCCC(C)=O [2-TRIDECANONE]
> 500 µg/mL
